meta.source: ChEMBL document CHEMBL4184189

Collected IC50 values appear next to each entry.
MEASURED_ON: UniProt:P51449
TEST_METHOD_NOTES: Inverse agonist activity at RORgammat in human Jurkat cells assessed as inhibition of transcriptional activity after overnight incubation by human IL-17 ROR response element driven-bright-glo luciferase reporter gene assay
Assay type: cell-based
PROPERTY_MEASURED: IC50

{"COMPOUND": "COc1ccc(C(C(=O)Nc2ccc(C(C)C)cc2)N(C)C(=O)c2ccc(O)nc2)cc1 (racemic)", "MEASUREMENT": "1.6 µM"}
{"COMPOUND": "COc1ccc(C(CC(=O)Nc2ccc(C(C)(C)C)cc2)N(C)C(=O)c2ccc(=O)[nH]c2)cc1 (racemic)", "MEASUREMENT": "> 30 µM"}
{"COMPOUND": "COc1ccc(C(C(=O)N(C)c2ccc(C(C)(C)C)cc2)N(C)C(=O)c2ccc(=O)[nH]c2)cc1 (racemic)", "MEASUREMENT": "> 30 µM"}
{"COMPOUND": "COc1ccc(CC(C(=O)Nc2ccc(C(C)(C)C)cc2)N(C)C(=O)c2ccc(=O)[nH]c2)cc1 (racemic)", "MEASUREMENT": "> 30 µM"}

* * *

Collected IC50 values appear next to each entry.
MEASURED_ON: Nuclear receptor ROR-gamma (Homo sapiens, UniProt P51449)
Sequence (P51449 whole entry): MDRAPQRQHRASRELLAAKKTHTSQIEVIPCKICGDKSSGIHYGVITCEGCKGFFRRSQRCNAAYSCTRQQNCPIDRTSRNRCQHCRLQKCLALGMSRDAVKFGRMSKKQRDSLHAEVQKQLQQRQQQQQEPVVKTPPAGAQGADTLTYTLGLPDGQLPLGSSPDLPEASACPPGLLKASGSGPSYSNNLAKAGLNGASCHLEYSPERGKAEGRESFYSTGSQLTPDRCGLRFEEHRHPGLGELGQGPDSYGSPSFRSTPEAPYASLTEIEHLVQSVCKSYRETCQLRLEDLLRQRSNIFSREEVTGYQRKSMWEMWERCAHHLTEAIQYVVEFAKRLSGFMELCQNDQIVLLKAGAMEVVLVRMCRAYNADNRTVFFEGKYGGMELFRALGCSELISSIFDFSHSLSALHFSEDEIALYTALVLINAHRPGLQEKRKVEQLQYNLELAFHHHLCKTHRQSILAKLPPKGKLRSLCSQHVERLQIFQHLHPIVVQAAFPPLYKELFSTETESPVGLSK
TEST_METHOD_NOTES: Displacement of BODIPY-cholesterol from human His-tagged RORgammat after 20 mins by TR-FRET assay

{"COMPOUND": "COc1ccc(C(C(=O)N(C)c2ccc(C(C)(C)C)cc2)N(C)C(=O)c2ccc(=O)[nH]c2)cc1 (racemic)", "IC50": "> 10 µM"}
{"COMPOUND": "COc1ccc(CC(C(=O)Nc2ccc(C(C)(C)C)cc2)N(C)C(=O)c2ccc(=O)[nH]c2)cc1 (racemic)", "IC50": "> 10 µM"}
{"COMPOUND": "COc1ccc(C(C(=O)Nc2ccc(C(C)C)cc2)N(C)C(=O)c2ccc(O)nc2)cc1 (racemic)", "IC50": "0.2 µM"}
{"COMPOUND": "COc1ccc(C(CC(=O)Nc2ccc(C(C)(C)C)cc2)N(C)C(=O)c2ccc(=O)[nH]c2)cc1 (racemic)", "IC50": "> 10 µM"}

* * *

TEST_METHOD_NOTES: AUC (0 to 24 hrs) in mouse plasma at 100 mg/kg, po
Assay type: ADME, organism-based
Set-up: dose 100 mg/kg, time < 24 hr, route oral

{"ENTRY_SMILES": "COc1ccc([C@H](C(=O)Nc2cc(F)c([Si](C)(C)C)c(F)c2)N(C)C(=O)c2cc(O)no2)cc1", "AUC(0-t) at 24 h": "47400 ng·h/mL"}
